# METHOD DESCRIPTION: Average plasma concentration of mivorilaner, various daily oral doses (Examples 5 and 11)
# Type: in vivo, dogs
# RECORDED CONDITIONS: dog, Group 4, 0.5 mg/kg/day oral, fed, 504 h after initial dose
READOUT TYPE: concentration at 504 h

[[record]]
substance_smiles = "O=C(CNC(=O)c1sc(C2=NO[C@@](c3cc(Cl)c(F)c(Cl)c3)(C(F)(F)F)C2)c2c1CCC2)NCC(F)F"
readout_type = "concentration at 504 h"
result = "1.63 µg/mL"


----------
# METHOD DESCRIPTION: Average plasma concentration of mivorilaner, various daily oral doses (Examples 5 and 11)
# Format: in vivo, dogs
# RECORDED CONDITIONS: dog, Group 5, 1.0 mg/kg/day oral, fed, 1440 h after initial dose
READOUT TYPE: concentration at 1440 h (ng/mL)

[[record]]
substance_smiles = "O=C(CNC(=O)c1sc(C2=NO[C@@](c3cc(Cl)c(F)c(Cl)c3)(C(F)(F)F)C2)c2c1CCC2)NCC(F)F"
readout_type = "concentration at 1440 h"
uom = "ng/mL"
measured_number = 4140


Source: patent US20230413819A1
